target: Akt3 (PKB gamma) (human (printed as '(h)'), UniProt Q9Y243 1-479, limits assumed); assay: cell-based or functional assay
Sequence (Q9Y243 whole entry): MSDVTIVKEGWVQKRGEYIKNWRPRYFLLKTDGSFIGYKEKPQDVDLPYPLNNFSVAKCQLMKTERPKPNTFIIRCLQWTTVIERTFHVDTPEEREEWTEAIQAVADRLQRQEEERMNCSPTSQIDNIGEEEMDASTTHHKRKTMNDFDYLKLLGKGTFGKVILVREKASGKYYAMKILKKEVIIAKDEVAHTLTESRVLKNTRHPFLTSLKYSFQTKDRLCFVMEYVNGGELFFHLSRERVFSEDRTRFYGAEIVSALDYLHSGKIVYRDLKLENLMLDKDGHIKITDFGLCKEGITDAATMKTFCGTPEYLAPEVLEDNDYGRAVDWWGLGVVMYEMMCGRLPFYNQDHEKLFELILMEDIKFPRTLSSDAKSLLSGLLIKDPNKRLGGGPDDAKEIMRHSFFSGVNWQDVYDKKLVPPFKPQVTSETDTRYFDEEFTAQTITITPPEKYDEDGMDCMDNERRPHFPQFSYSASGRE
REPORTED_ENDPOINT: Inhibitory Activity (%), cell-free in vitro kinase assay, peptide 50 µM
A number alone suffices; assume %.

Some binders with recorded Inhibitory Activity (%), cell-free in vitro kinase assay, peptide 50 µM:
| BINDER | UNIT_STRING | QUANTITATIVE_RESULT |
| --- | --- | --- |
| RAAKAARAAK [RAAKAARAAK peptide] | % | 2 |
| RVKVKVVVVR [RVKVKVVVVR peptide] | % | 93 |
| RSKAKNPLYR [RSKAKNPLYR peptide (β6 integrin derived)] | % | 8 |

Req: Dear colleague, I am looking for the recorded Inhibitory Activity (%), cell-free in vitro kinase assay, peptide 50 µM of the following binder: RAKAKAAAAR [RAKAKAAAAR peptide]
Resp: 52
